MEASUREMENT TARGET: OXA-23 (Acinetobacter baumannii, UniProt Q9L4P2)
Sequence (Q9L4P2 18-273): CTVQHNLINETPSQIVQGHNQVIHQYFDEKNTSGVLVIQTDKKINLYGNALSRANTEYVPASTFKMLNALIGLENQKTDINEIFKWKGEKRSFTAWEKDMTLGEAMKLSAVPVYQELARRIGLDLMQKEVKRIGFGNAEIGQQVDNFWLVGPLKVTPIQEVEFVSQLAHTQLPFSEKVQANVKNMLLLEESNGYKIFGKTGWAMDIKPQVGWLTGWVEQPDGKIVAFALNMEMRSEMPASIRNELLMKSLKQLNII

{"SAMPLE SMILES": "CN(C)C(=O)[C@@H]1C[C@H](SC2=C(C(=O)O)N3C(=O)[C@H](CO)[C@H]3C2)CN1", "UNIT": "nM", "Ki": 26}

Data provenance: paper PMC9239083
